test system: VIOTR; experiment: Post-emergence herbicidal action against VIOTR; type: in vivo, Viola tricolor; details: 5 g/ha
Quick reference for Post-emergence action against VIOTR in % among some compounds
Endpoint: Post-emergence action against VIOTR in %

INSERT INTO assay_data (smiles_record, endpoint_result) VALUES
  ('CCn1nnnc1NC(=O)c1ccc(S(C)(=O)=O)c(C(=O)NC2CC2)c1Cl', '100%'),
  ('CCCn1nnnc1NC(=O)c1ccc(C(F)(F)F)c(C(=O)NCC)c1Br', '100%'),
  ('CNC(=O)c1c(C(F)F)ccc(C(=O)Nc2nnco2)c1Cl', '90%'),
  ('Cn1nnnc1NC(=O)c1ccc(C(F)(F)F)c(C(=O)NCC2CC2)c1C1CC1', '80%');

###

Examples of compounds with documented pest or weed control at 20 g/ha follow.
system: ALOMY; test: Pre-emergence herbicidal action against ALOMY; type: in vivo, Alopecurus myosuroides; details: Alopecurus myosuroides, pre-emergence, 504 h; 20 g/ha; scored visually after 3 weeks, 100% = plants have died, 0% = like control plants
Endpoint: pest or weed control at 20 g/ha (%)

INSERT INTO measurements (smiles_record, endpoint_result) VALUES
  ('CCNC(=O)c1c(C(F)(F)F)ccc(C(=O)Nc2nnnn2C)c1CC', 90),
  ('CCCNC(=O)c1c(C(F)(F)F)ccc(C(=O)Nc2nnnn2C)c1C', 80),
  ('CCn1nnnc1NC(=O)c1ccc(Br)c(C(=O)NC)c1Cl', 90),
  ('CCNC(=O)c1c(C(F)(F)C(F)(F)F)ccc(C(=O)Nc2nnnn2C)c1Cl', 90),
  ('CCn1nnnc1NC(=O)c1ccc(C(F)(F)F)c(C(=O)NC2CC2)c1Cl', 90);

###

Measured Pre-emergence action against VIOTR in % by item
test system: VIOTR; experiment: Pre-emergence herbicidal action against VIOTR; format: in vivo, Viola tricolor; settings: dosage 80 g/ha
Endpoint: Pre-emergence action against VIOTR in % (%)

INSERT INTO results (compound, endpoint, unit_info, endpoint_result) VALUES
  ('CN(C)C(=O)CNC(=O)c1c(C(F)(F)F)ccc(C(=O)Nc2nnnn2C)c1Cl', 'Pre-emergence action against VIOTR in %', '%', 90),
  ('CCn1nnnc1NC(=O)c1ccc(C(F)(F)F)c(C(=O)NCC(F)F)c1C1CC1', 'Pre-emergence action against VIOTR in %', '%', 100),
  ('CCn1nnnc1NC(=O)c1ccc(C(F)F)c(C(=O)NC)c1Br', 'Pre-emergence action against VIOTR in %', '%', 100),
  ('CCn1nnnc1NC(=O)c1ccc(C(F)(F)F)c(C(=O)NC2CCC2)c1C', 'Pre-emergence action against VIOTR in %', '%', 100),
  ('CCNC(=O)c1c(C(F)(F)F)ccc(C(=O)Nc2nnc(C)o2)c1C', 'Pre-emergence action against VIOTR in %', '%', 100),
  ('CCn1nnnc1NC(=O)c1ccc(C(F)(F)F)c(C(=O)NC)c1C', 'Pre-emergence action against VIOTR in %', '%', 100),
  ('N#CCNC(=O)c1c(C(F)(F)F)ccc(C(=O)Nc2nnco2)c1Cl', 'Pre-emergence action against VIOTR in %', '%', 90),
  ('CCn1nnnc1NC(=O)c1ccc(C(F)F)c(C(=O)NCc2cccs2)c1Cl', 'Pre-emergence action against VIOTR in %', '%', 80),
  ('CCCn1nnnc1NC(=O)c1ccc(C(F)(F)F)c(C(=O)NCC)c1Br', 'Pre-emergence action against VIOTR in %', '%', 100),
  ('CSc1c(C(=O)Nc2nnnn2C)ccc(C(F)F)c1C(=O)NCC(F)F', 'Pre-emergence action against VIOTR in %', '%', 100),
  ('CCc1c(C(=O)Nc2nnnn2C)ccc(C(F)(F)F)c1C(=O)NC(C)C1CC1 (stereo not drawn)', 'Pre-emergence action against VIOTR in %', '%', 100),
  ('Cn1nnnc1NC(=O)c1ccc(C(F)F)c(C(=O)NCC(F)F)c1Br', 'Pre-emergence action against VIOTR in %', '%', 100),
  ('CCn1nnnc1NC(=O)c1ccc(C(F)F)c(C(=O)NC2CC2)c1OC', 'Pre-emergence action against VIOTR in %', '%', 100),
  ('CCn1nnnc1NC(=O)c1ccc(C(F)(F)F)c(C(=O)NCc2cccs2)c1Cl', 'Pre-emergence action against VIOTR in %', '%', 90),
  ('Cn1nnnc1NC(=O)c1ccc(C(F)(F)F)c(C(=O)NCc2cccs2)c1Cl', 'Pre-emergence action against VIOTR in %', '%', 100),
  ('Cn1nnnc1NC(=O)c1ccc(C(F)F)c(C(=O)NCC2CC2)c1Br', 'Pre-emergence action against VIOTR in %', '%', 100),
  ('CCc1c(C(=O)Nc2nnnn2CC)ccc(C(F)(F)F)c1C(=O)NC', 'Pre-emergence action against VIOTR in %', '%', 100),
  ('CNC(=O)c1c(C(F)F)ccc(C(=O)Nc2nnco2)c1Cl', 'Pre-emergence action against VIOTR in %', '%', 100);

###

// values below are reported pest or weed control at 5 g/ha
test system: VIOTR; assay: Post-emergence herbicidal action against VIOTR; type: in vivo, Viola tricolor; conditions: Viola tricolor, 504 h, 5 g/ha
Endpoint: pest or weed control at 5 g/ha

INSERT INTO results (smiles_record, endpoint_result) VALUES
  ('CCn1nnnc1NC(=O)c1ccc(C(F)F)c(C(=O)NC2CC2)c1Br', '90%'),
  ('COc1c(C(=O)Nc2nnnn2C)ccc(C(F)F)c1C(=O)NC1CC1', '80%'),
  ('CCc1c(C(=O)Nc2nnnn2CC)ccc(C(F)F)c1C(=O)NC1CC1', '80%'),
  ('CNC(=O)c1c(C(F)(F)F)ccc(C(=O)Nc2nnnn2C)c1C', '100%'),
  ('CCn1nnnc1NC(=O)c1ccc(C(F)(F)F)c(C(=O)NC)c1Cl', '80%'),
  ('CCc1c(C(=O)Nc2nnnn2C)ccc(C(F)F)c1C(=O)NC', '80%'),
  ('CCn1nnnc1NC(=O)c1ccc(C(F)(F)F)c(C(=O)NC)c1Br', '100%'),
  ('CCc1c(C(=O)Nc2nnnn2C)ccc(C(F)(F)F)c1C(=O)NC1CC1', '100%'),
  ('CCCn1nnnc1NC(=O)c1ccc(C(F)(F)F)c(C(=O)NC)c1Cl', '80%'),
  ('CCNC(=O)c1c(C(F)(F)F)ccc(C(=O)Nc2nnnn2CC)c1C1CC1', '80%'),
  ('CCNC(=O)c1c(C(F)F)ccc(C(=O)Nc2nnnn2C)c1C1CC1', '90%'),
  ('CCn1nnnc1NC(=O)c1ccc(C(F)(F)F)c(C(=O)NC2CC2)c1C1CC1', '90%'),
  ('CNC(=O)c1c(Br)ccc(C(=O)Nc2nnnn2C)c1Cl', '90%'),
  ('CCNC(=O)c1c(C(F)(F)F)ccc(C(=O)Nc2nnnn2C)c1Cl', '90%'),
  ('CCn1nnnc1NC(=O)c1ccc(C(F)F)c(C(=O)NC2CC2)c1Cl', '100%'),
  ('CCc1c(C(=O)Nc2nnnn2C)ccc(C(F)F)c1C(=O)NC1CC1', '90%'),
  ('CCNC(=O)c1c(C(F)F)ccc(C(=O)Nc2nnnn2C)c1C', '80%');

###

tested on: ECHCG; assay: Pre-emergence herbicidal action against ECHCG; assay type: in vivo, Echinochloa crus-galli; conditions: Echinochloa crus-galli, 504 h, 20 g/ha
Endpoint: pest or weed control at 20 g/ha (%)

INSERT INTO assay_data (smiles_record, system_name, unit_info, endpoint_result) VALUES
  ('CCCNC(=O)c1c(C(F)(F)F)ccc(C(=O)Nc2nnnn2C)c1C', 'ECHCG', '%', 80),
  ('CCn1nnnc1NC(=O)c1ccc(C(F)(F)F)c(C(=O)NC2CC2)c1C', 'ECHCG', '%', 90),
  ('CCNC(=O)c1c(C(F)(F)F)ccc(C(=O)Nc2nnnn2C)c1C', 'ECHCG', '%', 80),
  ('CNC(=O)c1c(C(F)(F)F)ccc(C(=O)Nc2nnnn2C)c1Cl', 'ECHCG', '%', 80),
  ('CCCNC(=O)c1c(C(F)F)ccc(C(=O)Nc2nnnn2CC)c1C', 'ECHCG', '%', 90),
  ('CCn1nnnc1NC(=O)c1ccc(C(F)(F)F)c(C(=O)NC(C)=O)c1Cl', 'ECHCG', '%', 80),
  ('CNC(=O)c1c(Br)ccc(C(=O)Nc2nnnn2C)c1Cl', 'ECHCG', '%', 80);

###

tested on: PHBPU; assay: Post-emergence herbicidal action against PHBPU; type: in vivo, Pharbitis purpurea; details: Ipomoea purpurea, 504 h, dosage 80 g/ha
Endpoint: pest or weed control at 80 g/ha (%)

INSERT INTO results (smiles_record, unit_info, endpoint_result) VALUES
  ('CCNC(=O)c1c(C(F)(F)F)ccc(C(=O)Nc2nnc(C)o2)c1Cl', '%', 80),
  ('CCCn1nnnc1NC(=O)c1ccc(C(F)(F)F)c(C(=O)NC)c1Cl', '%', 100),
  ('CNC(=O)c1c(C(F)F)ccc(C(=O)Nc2nnnn2C)c1Cl', '%', 90),
  ('Cn1nnnc1NC(=O)c1ccc(C(F)(F)F)c(C(N)=O)c1Cl', '%', 90);
